Each recorded value in this set is attributed to patent US5741798A.

- assayedSystem: Human cyclooxygenase 1 (COX-1) (Homo sapiens)
- Sequence (P23219 24-599): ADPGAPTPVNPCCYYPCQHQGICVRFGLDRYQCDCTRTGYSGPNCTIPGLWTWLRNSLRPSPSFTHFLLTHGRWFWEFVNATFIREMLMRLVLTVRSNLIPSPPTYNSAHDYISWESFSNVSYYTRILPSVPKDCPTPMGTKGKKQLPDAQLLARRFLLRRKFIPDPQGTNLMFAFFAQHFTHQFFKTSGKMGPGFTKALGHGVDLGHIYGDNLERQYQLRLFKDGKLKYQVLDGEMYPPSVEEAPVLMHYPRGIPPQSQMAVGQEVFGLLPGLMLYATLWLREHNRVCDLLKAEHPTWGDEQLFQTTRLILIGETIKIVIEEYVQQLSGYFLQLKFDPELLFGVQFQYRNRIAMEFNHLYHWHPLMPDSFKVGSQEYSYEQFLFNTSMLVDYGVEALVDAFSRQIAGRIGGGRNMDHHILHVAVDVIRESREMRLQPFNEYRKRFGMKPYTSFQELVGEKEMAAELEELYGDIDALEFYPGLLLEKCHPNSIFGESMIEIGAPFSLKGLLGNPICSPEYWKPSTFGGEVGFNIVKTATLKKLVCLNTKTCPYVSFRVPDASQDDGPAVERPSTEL
- assayNotes: COX-1 inhibition, microsomal assay
- cond: 20 min, read-out: % Inhibition of COX Enzymes in Microsomal Assays, COX-1
measurementLabel: inhibition at 1 µg/mL (%)

Solved cases (4 shown):
| compound | recordedNumber |
| --- | --- |
| CC(C)S(=O)(=O)C1C(=O)N(Cc2ccccc2F)C(=O)c2ccccc21 (centres unmarked) | 14 |
| CCCS(=O)(=O)C1C(=O)N(Cc2ccccc2)C(=O)c2ccccc21 (centres unmarked) | 22 |
| O=C1c2ccccc2C(S(=O)(=O)c2ccc(F)cc2)C(=O)N1Cc1ccccc1 (centres unmarked) | 76 |
| CC(C)S(=O)(=O)C1C(=O)N(Cc2ccc(F)c(F)c2)C(=O)c2ccc(Cl)cc21 (centres unmarked) | 40 |

a = O=C1c2ccccc2C(S(=O)(=O)c2ccccc2)C(=O)N1Cc1ccccc1 (centres unmarked)
b = CC(C)S(=O)(=O)C1C(=O)N(Cc2cccc(Cl)c2)C(=O)c2ccccc21 (centres unmarked)
c = CC(C)S(=O)(=O)C1C(=O)N(Cc2ccc(Cl)cc2)C(=O)c2ccccc21 (centres unmarked)
d = CC(C)S(=O)(=O)C1C(=O)N(Cc2ccccc2)C(=O)c2ccc(Cl)cc21 (centres unmarked)
# input Put the items in sequence by inhibition at 1 µg/mL, from largest down. List the labels according to the requested ordering.
# output a, d, b, c
(a: 59%, d: 34%, b: 19%, c: 4%)

###

- assayedSystem: Human cyclooxygenase 2 (COX-2) (Homo sapiens)
- assayNotes: COX-2 inhibition, microsomal assay
- cond: 20 min, read-out: % Inhibition of COX Enzymes in Microsomal Assays, COX-2
measurementLabel: inhibition at 10 µg/mL (%)

Solved cases (5 shown):
| molecule | inhibition at 10 µg/mL, % |
| --- | --- |
| O=C1c2ccccc2C(S(=O)(=O)c2cccs2)C(=O)N1Cc1ccccc1 (stereo not drawn) [Example 21] | 48 |
| COc1ccc(S(=O)(=O)C2C(=O)N(Cc3ccccc3)C(=O)c3ccccc32)cc1 (stereo not drawn) [Example 16] | 97 |
| O=C1c2ccccc2C(S(=O)(=O)c2ccc(Cl)cc2)C(=O)N1Cc1ccccc1 (stereo not drawn) [Example 19] | 93 |
| O=C1c2ccccc2C(S(=O)(=O)c2ccc(Br)cc2)C(=O)N1Cc1ccccc1 (stereo not drawn) [Example 13] | 100 |
| CC(C)S(=O)(=O)C1C(=O)N(Cc2ccc(F)c(F)c2)C(=O)c2ccc(Cl)cc21 (stereo not drawn) [Example 10] | 100 |

I = Cc1ccc(S(=O)(=O)C2C(=O)N(Cc3ccccc3)C(=O)c3ccccc32)cc1 (stereo not drawn) [Example 14]
II = O=C1c2ccccc2C(S(=O)(=O)c2ccc3ccccc3c2)C(=O)N1Cc1ccccc1 (stereo not drawn) [Example 15]
III = CC(C)S(=O)(=O)C1C(=O)N(Cc2ccc(Cl)cc2)C(=O)c2ccccc21 (stereo not drawn) [Example 7]
# input Ascending sort, inhibition at 10 µg/mL. List the labels according to the requested ordering.
# output II, III, I

###

- assayedSystem: Human cyclooxygenase 2 (COX-2) (Homo sapiens, UniProt P35354)
- Sequence (P35354 18-604): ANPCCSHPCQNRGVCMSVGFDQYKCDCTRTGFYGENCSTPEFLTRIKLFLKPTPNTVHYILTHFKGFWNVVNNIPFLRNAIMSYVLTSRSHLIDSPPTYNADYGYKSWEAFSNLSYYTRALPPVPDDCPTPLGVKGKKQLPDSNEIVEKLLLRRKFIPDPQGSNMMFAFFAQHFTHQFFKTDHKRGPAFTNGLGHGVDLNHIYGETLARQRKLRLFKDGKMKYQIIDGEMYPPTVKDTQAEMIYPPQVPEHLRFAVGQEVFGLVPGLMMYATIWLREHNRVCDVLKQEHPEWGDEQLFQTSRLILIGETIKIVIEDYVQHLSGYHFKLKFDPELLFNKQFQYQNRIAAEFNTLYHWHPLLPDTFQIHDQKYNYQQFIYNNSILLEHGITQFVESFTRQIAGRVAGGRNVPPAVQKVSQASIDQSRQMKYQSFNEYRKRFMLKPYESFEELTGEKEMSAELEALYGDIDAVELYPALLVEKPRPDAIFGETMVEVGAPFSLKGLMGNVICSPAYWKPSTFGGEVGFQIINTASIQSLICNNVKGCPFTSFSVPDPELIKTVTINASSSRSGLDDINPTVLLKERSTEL
- assayNotes: COX-2 inhibition, microsomal assay
- cond: 20 min, read-out: % Inhibition of COX Enzymes in Microsomal Assays, COX-2
measurementLabel: inhibition at 0.1 µg/mL (%)

| compound | recordedNumber |
| --- | --- |
| COc1ccc(S(=O)(=O)C2C(=O)N(Cc3ccccc3)C(=O)c3ccccc32)cc1 (stereo not shown) [Example 16] | 21 |

P = O=C1c2ccccc2C(S(=O)(=O)c2ccc(Br)cc2)C(=O)N1Cc1ccccc1 (stereo not shown) [Example 13]
Q = CC(C)S(=O)(=O)C1C(=O)N(Cc2ccc(F)c(F)c2)C(=O)c2ccccc21 (stereo not shown) [Example 9]
R = O=C1c2ccccc2C(S(=O)(=O)c2ccc(Cl)cc2)C(=O)N1Cc1ccccc1 (stereo not shown) [Example 19]
# input Put the items in sequence by inhibition at 0.1 µg/mL, from largest down. List the labels according to the requested ordering.
# output R, P, Q
(R: 59%, P: 28%, Q: 8%)

###

- assayedSystem: Human cyclooxygenase 2 (COX-2) (Homo sapiens, UniProt P35354)
- assayNotes: COX-2 inhibition, microsomal assay
- cond: 20 min, read-out: % Inhibition of COX Enzymes in Microsomal Assays, COX-2
measurementLabel: inhibition at 1 µg/mL (%)

Solved cases (2 shown):
| molecule | inhibition at 1 µg/mL [%] |
| --- | --- |
| CC(C)S(=O)(=O)C1C(=O)N(Cc2ccc(Cl)cc2)C(=O)c2ccccc21 (stereo not shown) [Example 7] | 62 |
| CC(C)S(=O)(=O)C1C(=O)N(Cc2ccccc2F)C(=O)c2ccccc21 (stereo not shown) [Example 2] | 37 |

A = CC(C)S(=O)(=O)C1C(=O)N(Cc2ccc(F)c(F)c2)C(=O)c2ccccc21 (stereo not shown) [Example 9]
B = CC(C)S(=O)(=O)C1C(=O)N(Cc2cccc(Cl)c2)C(=O)c2ccccc21 (stereo not shown) [Example 6]
# input Hey, which is lower on measured inhibition at 1 µg/mL, A or B ? In your reply, give the label of the chosen option.
# output B
(B: 27%, A: 75%)
